- test_name: NCI Yeast Anticancer Drug Screen. Data for the mlh1 rad18 strain (AID 175)
- assay_setup: S. cerevisiae mlh1 rad18 strain growth inhibition; at 50.0 µM; stronger effect = higher value
This is part of a sample that, as a whole, favours compounds with a hit. Of some 79,000 tested, about 15% had one in any assay.
Kindly supply the reported growth inhibition values for the records listed here.
Numeric only. Scale: %

Would you kindly share the measured growth inhibition for O=[N+]([O-])c1ccccc1-c1ccccc1[N+](=O)[O-] ?
-10.8

Then this compound: CC1c2ccccc2Cn2cc3c(c21)C(=O)c1cccc(OP(=O)(O)OCc2ccccc2)c1C3=O (stereo not given)
11.9

Then this compound: Cc1ccc(S(=O)(=O)NC(=O)C2(Br)S(=O)(=O)OCCOS2(=O)=O)cc1
12

Then this compound: CCSC(SCC)C(Nc1ccc([N+](=O)[O-])cc1[N+](=O)[O-])C(OC(C)=O)C(OC(C)=O)C(COC(C)=O)OC(C)=O (stereo not given)
12.8

Then this compound: NS(=O)(=O)c1cc(Br)ccc1Br
-7.65

Then this compound: O=[N+]([O-])c1cc2c(c([N+](=O)[O-])c1)Nc1cc(Cl)ccc1O2
26.9

Then this compound: CC(=O)OCC1OC(n2nc(/C=C/c3ccco3)c(=O)n(-c3ccccc3)c2=S)C(OC(C)=O)C(OC(C)=O)C1OC(C)=O (stereo not given)
56.4

Then this compound: O=C(O)c1c(Cl)ccc(F)c1Cl
8.35

Then this compound: COc1ccc(NC2=CC(=O)C(=O)c3ccccc32)nn1
-16

Then this compound: CC(=O)OC(C)(C)[C@@H]1CC[C@H](C)C2=C(C1)[C@@H](C)CC2
-16.1

###

- test_name: NCI Yeast Anticancer Drug Screen. Data for the mec2-1 strain (AID 157)
- assay_setup: S. cerevisiae mec2-1 strain, at 50.0 µM
Compounds without any hit were thinned out: in the full panel of roughly 79,000, 15% have a hit. Active and inactive are the calls of the source. Cut-off read from the data, not from the text of the source: active = growth inhibition above about 70%; inactive = the rest.
Please state which outcome applies, choosing from 1 (yes) = active, 0 (no) = inactive

Call for entry COc1cc(Nc2cc(Cl)cc(Cl)c2)nc(N)n1 :
1 (yes)

Then this molecule: Cc1ccc(Oc2cc(C)ccc2P(=O)(O)O)cc1
0 (no)

Then this molecule: ClCCOCOc1ccc2ccccc2c1
0 (no)

Then this molecule: Nc1ccc(C(=O)Oc2ccc(OC(=O)c3ccccc3)cc2)cc1
0 (no)

Then this molecule: O=C1CSSCC(=O)NCCCN1
0 (no)

Then this molecule: CN1C2=C(CC3=C1CC(C)(C)CC3=O)C(=O)CC(C)(C)C2
0 (no)

Then this molecule: COc1cccc(C2c3cc4c(cc3OC(Nc3ccccc3)C2C)OCO4)c1OC (configuration not stated)
0 (no)

Then this molecule: O=C(CCC(O)c1ccccc1)c1ccccc1 (configuration not stated)
0 (no)

Then this molecule: CC(O)C(C)(C)[N+](=O)[O-] (configuration not stated)
0 (no)

Then this molecule: CN(C)CC1C2CCC(C2)C1O (configuration not stated)
0 (no)

Then this molecule: Cc1ccc(S(=O)(=O)/N=[N+](\[O-])c2ccc(N(C)C)cc2)cc1
0 (no)

Then this molecule: Cc1ccc(N2CCCCN(c3ccc(C)cc3)/C(c3ccccc3)=C\2c2ccccc2)cc1
0 (no)

###

- test_name: NCI Yeast Anticancer Drug Screen. Data for the mec2-1 strain (AID 157)
- assay_setup: S. cerevisiae mec2-1 strain, at 50.0 µM, stronger effect = higher value
Compounds without any hit were thinned out: in the full panel of roughly 79,000, 15% have a hit.
quantity_kind: growth inhibition (%)
Numeric only. Scale: %

Would you kindly share the measured growth inhibition for O=C(NC1CCCCC1)N(C(=O)C(F)(F)F)C1CCCCC1 ?
3.6

Then this compound: C/C(=N\NC(N)=S)c1cc(C)c(C)cc1C
5.55

Then this compound: CC(=O)CCn1ncc(Cl)c(Cl)c1=O
-18.3

Then this compound: Cc1cc(=O)n2nc(SCc3ccccc3)sc2n1
8.2

Then this compound: O=C(Nc1ccccc1)C1CC=C2CCC3OC(=O)C1C23 (configuration not stated)
-16.7

Then this compound: COc1c(O)c(O)c2c(c1O)C(=O)c1cc(C)cc(O)c1C2=O
-27

Then this compound: CC1=CCCC(C)(C)C1/C=C\C(C)=N\Nc1ccc([N+](=O)[O-])cc1[N+](=O)[O-] (configuration not stated)
-3.3

Then this compound: CCSCCOC(=S)Nc1ccccc1
-8.05

Then this compound: CC(=O)Nc1cc(CN2CCCCC2)c(O)c2ncccc12
-21.4

Then this compound: CCN(CC)c1ccc2cc(C(=O)Nc3nc(C45CC6CC(CC(C6)C4)C5)cs3)c(=O)oc2c1
-25.9

Then this compound: CCCCCCCCCCC(=O)OCC
0.65

Then this compound: Cc1cc(Br)ccc1C1=C(O)C(=O)NC1=O
-10.4
